Cited source: patent US9056914B2

- Test system: HCT116 cells
- protocol summary: Inhibition of proliferation of HCT116 cells by tomaymycin dimers (14C-thymidine incorporation)
- Assay type: cell-based
- conditions: Homo sapiens, HCT-116; HCT116, 3 days culture, 14C-thymidine incorporation at 96 h; read-out: Inhibition of proliferation (14C-thymidine pulse at 96 h) IC50 HCT116
- Text: Evaluation of the Inhibition of Proliferation of the Cell Lines MDA-MB-231, MDA-A1 and HCT116 with the Compounds of Formula (IA) with RCG1=—SZa (Za=SMe) or RCG1=—C(═O)ZbRb (ZbRb=OMe) […]
Rule for this label: class 1 means IC50 is less than 0.06 nM; class 0 means IC50 is at least 0.06 nM.

[
  {
    "structure": "C/C=C1\\C[C@H]2C=Nc3cc(OCc4cc(OCCN(CCOCCOCCN5CCOCC5)CC(C)(C)SSC)cc(COc5cc6c(cc5OC)C(=O)N5C/C(=C/C)C[C@H]5C=N6)n4)c(OC)cc3C(=O)N2C1",
    "label": "class 1"
  },
  {
    "structure": "C/C=C1\\C[C@H]2C=Nc3cc(OCc4cc(OCCN(CCOCCOCCOC)CCC(=O)OC)cc(COc5cc6c(cc5OC)C(=O)N5C/C(=C/C)C[C@H]5C=N6)n4)c(OC)cc3C(=O)N2C1",
    "label": "class 0"
  },
  {
    "structure": "C/C=C1\\C[C@H]2C=Nc3cc(OCc4cc(OCCN(CCCC(=O)OCC)C(=O)CCOCCOCCOCCOC)cc(COc5cc6c(cc5OC)C(=O)N5C/C(=C/C)C[C@H]5C=N6)n4)c(OC)cc3C(=O)N2C1",
    "label": "class 0"
  },
  {
    "structure": "C/C=C1\\C[C@H]2C=Nc3cc(OCc4cc(OCCN(CCCC(=O)OCC)CCOCCOCCOC)cc(COc5cc6c(cc5OC)C(=O)N5C/C(=C/C)C[C@H]5C=N6)n4)c(OC)cc3C(=O)N2C1",
    "label": "class 1"
  }
]
